system: Aβ1-42 production in H4 cells stably transfected with APP751 containing the Swedish mutation; test: Cellular assay for inhibition of Aβ1-42 production (H4 APP751 SWE clone 8.20); assay type: cell-based; settings: 19 h, H4 APP751 SWE clone 8.20 cells, 19 h incubation; read-out: Aβ42 cellular IC50
pIC50: −log10 of the molar value.
ENDPOINT_NAME: pIC50

Past entries and their recorded results:
// query Which value of pIC50 has been reported for COc1ccc(-c2cn(-c3ccc4c(c3)[C@@]3(C)N=C(N)SC[C@H]3CCO4)cn2)cc1 (relative stereo) [Example 31] in the records?
// result 5.03

// query Also, C[C@]12N=C(N)SC[C@H]1CCCc1ccc(NC(=O)c3ccc(Cl)cn3)cc12 (relative stereo) [Example 3, 2,2,2-trifluoroacetate] please.
// result 7.47

// query Also, C[C@]12N=C(N)SC[C@H]1CCCc1ccc(-c3cncc(Cl)c3)cc12 (relative stereo) [Example 13] please.
// result 5.51

// query Also, C[C@]12N=C(N)SC[C@H]1CCOc1ccc(-n3cccn3)cc12 (relative stereo) [Example 32, 2,2,2-trifluoroacetate] please.
// result 4.96

// query Also, C[C@]12N=C(N)SC[C@H]1CCCc1ccc(NC(=O)c3ncc(Cl)cc3Cl)cc12 [Example 45a] please.
// result 8.14

A = C[C@]12N=C(N)SC[C@H]1CCc1ccc(NC(=O)c3ncc(F)cc3F)cc12 (relative stereo) [Example 8, 2,2,2-trifluoroacetate]
B = C[C@]12N=C(N)SC[C@H]1CCOc1ccc(-c3cn[nH]c3)cc12 (relative stereo) [Example 24]
// query Of the pair A and B , name the member with the lesser recorded pIC50. When you have decided, please share the label of that item.
// result B
(B: 5.09, A: 5.51)

----------
system: Aβ1-42 production in H4 cells stably transfected with APP751 containing the Swedish mutation; experiment: Cellular assay for inhibition of Aβ1-42 production (H4 APP751 SWE clone 8.20); format: cell-based; conditions: 19 h, H4 APP751 SWE clone 8.20 cells, 19 h incubation; read-out: Aβ42 cellular IC50
pIC50: −log10 of the molar value.
ENDPOINT_NAME: pIC50

Past entries and their recorded results:
// query Which value of pIC50 has been reported for C[C@]12N=C(N)SC[C@H]1CCOc1ccc(NC(=O)c3ncc(Cl)cc3Cl)cc12 [Example 34a] in the records?
// result 8.16

// query Also, COc1cncc(-c2ccc3c(c2)[C@@]2(C)N=C(N)SC[C@H]2CCC3)c1 (relative stereo) [Example 11] please.
// result 5.47

I = C[C@]12N=C(N)SC[C@H]1COc1cc(F)c(-c3cncnc3)cc12 (relative stereo) [Example 17]
II = C[C@]12N=C(N)SC[C@H]1CCCc1ccc(NC(=O)c3ccc(Cl)cn3)cc12 [Example 3a]
// query Returns: the argument ( I or II ) having the larger pIC50. When you have decided, please share the label of that item.
// result II

----------
system: Aβ1-42 production in H4 cells stably transfected with APP751 containing the Swedish mutation; assay: Cellular assay for inhibition of Aβ1-42 production (H4 APP751 SWE clone 8.20); type: cell-based; conditions: 19 h, H4 APP751 SWE clone 8.20 cells, 19 h incubation; read-out: Aβ42 cellular IC50
pIC50: −log10 of the molar value.
ENDPOINT_NAME: pIC50

// query Which value of pIC50 has been reported for C[C@@]12N=C(N)SC[C@@H]1CCCc1ccc(NC(=O)c3ncc(Cl)cc3Cl)cc12 [Example 45b] in the records?
// result 6.04

// query Also, C[C@]12N=C(N)SC[C@H]1CCc1ccc(-c3cncnc3)cc12 (relative stereo) please.
// result 5.34

P = C[C@]12N=C(N)SC[C@H]1CCc1ccc(Br)cc12 (relative stereo)
Q = COc1cccc(-c2ccc3c(c2)[C@@]2(C)N=C(N)SC[C@H]2CCC3)c1 (relative stereo) [Example 12, 2,2,2-trifluoroacetate]
// query Returns: the argument ( P or Q ) having the larger pIC50. When you have decided, please share the label of that item.
// result Q
(Q: 5.47, P: 4.89)
